tested on: Wnt/Beta-Catenin pathway (LEF-TCF-bla SW480 cells); experiment: Wnt/Beta-Catenin (APC-/-) LEF-TCF-bla SW480 inhibitor screen, constitutively activated; type: cell-based; settings: read-out: TCF/LEF receptor gene activity IC50
METRIC_NAME: IC50 (nM)
One number for each entry, in nM.

// returns reported IC50 for input CN1CC(=O)N2C[C@@H](NC(=O)Cc3ccc4ccccc4c3)C[C@H]2COc2ccc(F)cc2C(=O)N(C)[C@H](C(=O)NCc2cccc3ccccc23)CCC1=O [Ex. 501]
1100

---

Assignment: determine reported EC50 for the given compounds.
molecular target: 5-hydroxytryptamine 2B (5-HT2B) Receptor (Homo sapiens); construct: host or cells: Ca2+ optimized hematopoietic cell lines (rat); assay: Ca2+ assay (FLIPR) for the GPCR 5-HT2B receptor, agonist and antagonist mode; format: cell-based
Sequence (P41595 whole entry, species assumed): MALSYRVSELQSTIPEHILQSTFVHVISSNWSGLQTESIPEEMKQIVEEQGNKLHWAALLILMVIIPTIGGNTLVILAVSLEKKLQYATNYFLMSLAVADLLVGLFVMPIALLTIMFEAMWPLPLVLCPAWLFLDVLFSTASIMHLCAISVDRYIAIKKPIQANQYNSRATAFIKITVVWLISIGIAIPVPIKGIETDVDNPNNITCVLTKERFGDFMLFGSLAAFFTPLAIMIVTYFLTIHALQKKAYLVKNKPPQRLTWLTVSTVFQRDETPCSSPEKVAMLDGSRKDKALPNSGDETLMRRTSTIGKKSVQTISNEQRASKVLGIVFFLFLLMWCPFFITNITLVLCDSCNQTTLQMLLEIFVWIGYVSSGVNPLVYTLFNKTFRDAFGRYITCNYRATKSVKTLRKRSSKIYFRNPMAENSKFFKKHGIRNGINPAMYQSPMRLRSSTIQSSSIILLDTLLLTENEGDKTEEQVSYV
One number for each entry, in µM.

Examples with answers:
COMPOUND_SMILES	ASSAYED_SYSTEM	QUANTITY_UNIT	EC50
CC(=O)N[C@H]1C[C@H]2COc3ccc(F)cc3C(=O)N(C)[C@H](C(=O)NCCc3c[nH]c4ccccc34)CCC(=O)N(C)CC(=O)N2C1	5-hydroxytryptamine 2B (5-HT2B) Receptor (Homo sapiens)	µM	12
CN1CC(=O)N2C[C@@H](NC(=O)Cc3c[nH]c4ccccc34)C[C@H]2COc2ccc(F)cc2C(=O)N(C)[C@H](C(=O)NCCc2c[nH]c3ccccc23)CCC1=O	5-hydroxytryptamine 2B (5-HT2B) Receptor (Homo sapiens)	µM	3.3
CN(C)CC(=O)N[C@H]1C[C@H]2COc3ccc(F)cc3C(=O)N(C)[C@H](C(=O)NCCc3c[nH]c4ccccc34)CCC(=O)N(C)CC(=O)N2C1	5-hydroxytryptamine 2B (5-HT2B) Receptor (Homo sapiens)	µM	6.6

For the compound shown here, CN1CC(=O)N2C[C@@H](NC(=O)OC(C)(C)C)C[C@H]2COc2ccc(F)cc2C(=O)N(C)[C@H](C(=O)NCCc2c[nH]c3ccccc23)CCC1=O , give the reported EC50.
3.3

---

Assay: Metabolic stability assay, human microsomes
Type: in vitro ADME
Conditions: both, human, microsomes, 10 µM
Protocol: 4. Plasma and Metabolic Stability Assays […] Microsomes from a human 50 donor mixed gender pool and 1:1 mixtures of microsomes from CD-1 mouse single-gender pools are purchased from Celsis (Belgium). […] After acetonitrile precipitation (2 volumes) and HPLC/MS/MS analysis metabolic turnover is expressed in % of the initial 0 minutes value and half life T½ (min) is calculated. […]
Please provide measured Metabolic Stability T½ [min] hum for the entries that follow.

# annotated cases, reported Metabolic Stability T½ [min] hum shown
COMPOUND	RESULT
CN1CC(=O)N2C[C@@H](NC(=O)CN3CCCC3)C[C@H]2COc2ccc(F)cc2C(=O)N(C)[C@@H](C(=O)N2CCCC2)CCC1=O [Ex. 98]	> 60 min
CN1CC(=O)N2C[C@H](NC(=O)CCC(=O)O)C[C@H]2COc2ccc(cc2)C(=O)N(C)[C@H](C(=O)NCc2ccncc2)CCC1=O [Ex. 267]	> 60 min
CCCCC(=O)N[C@@H]1C[C@H]2COc3ccc(F)cc3C(=O)N(C)[C@H](C(=O)N(C)CCN(C)C)CCC(=O)N(C)CC(=O)N2C1 [Ex. 78]	> 60 min
CN1CC(=O)N2C[C@@H](N)C[C@H]2COc2ccc(F)cc2C(=O)N(C)[C@@H](C(=O)NCc2ccc3ccccc3c2)CCC1=O [Ex. 91]	> 60 min
CC(=O)N1CCN([C@H]2CCCN(C)C(=O)c3cccc(c3)OC[C@@H]3C[C@H](O)CN3C2=O)CC1 [Ex. 582]	> 60 min

Here is the next item to consider.
Please give the measured Metabolic Stability T½ [min] hum for this compound: CN(C)CCNC(=O)[C@H]1CCC(=O)N(C)CC(=O)N2CCN(C(=O)Cc3ccc4ccccc4c3)C[C@@H]2COc2ccc(F)cc2C(=O)N1C [Ex. 138]
> 60 min

---

assay: Metabolic stability assay, human microsomes; type: in vitro ADME; conditions: both, human, microsomes, 1 h, 10 µM
METRIC_NAME: Metabolic Stability 60 min hum [% remain.] (% remain.)
Numbers only, in % remain..

COMPOUND	RESULT
CCN(CC)[C@@H]1C[C@H]2COc3ccc(cc3)C(=O)N(C)[C@H](C(=O)NCc3ccc4ccccc4c3)CCC(=O)N(C)CC(=O)N2C1 [Ex. 262]	0

For every item in the list below, what is its measured Metabolic Stability 60 min hum [% remain.]?
1. CN(C)CCNC(=O)[C@@H]1CCC(=O)N(C)CC(=O)N2C[C@@H](NC(=O)Nc3cccc4ccccc34)C[C@H]2COc2ccc(F)cc2C(=O)N1C [Ex. 482]
2. CN1CCC[C@H](N2CCNCC2)C(=O)N2C[C@@H](O)C[C@H]2COc2cccc(c2)C1=O [Ex. 580]

1. 11
2. 100

---

Assay: Metabolic stability assay, human microsomes
Type: in vitro ADME
Settings: both sexes, human, microsomes
Method: 4. Plasma and Metabolic Stability Assays […] Microsomes from a human 50 donor mixed gender pool and 1:1 mixtures of microsomes from CD-1 mouse single-gender pools are purchased from Celsis (Belgium). […] After acetonitrile precipitation (2 volumes) and HPLC/MS/MS analysis metabolic turnover is expressed in % of the initial 0 minutes value and half life T½ (min) is calculated. […]
METRIC_NAME: half-life at 10 µM
Express your answer as a number followed by its unit.

Example compounds with recorded half-life at 10 µM:
COMPOUND	METRIC_NAME	RESULT
CCCCCCCCCC(=O)N[C@H]1CCCN(C)C(=O)c2cccc(c2)OC[C@@H]2C[C@H](NC(=O)Nc3cccc(N(C)C)c3)CN2C1=O [Ex. 511]	half-life at 10 µM	2 min
CN1CC(=O)N2CC(NC(=O)Cc3cccc4ccccc34)CC2COc2ccc(F)cc2C(=O)N(C)C(C(=O)NCCNc2ccccn2)CCC1=O (stereo not drawn) [Ex. 485]	half-life at 10 µM	14 min

Look up half-life at 10 µM: CCN(CC)[C@@H]1C[C@H]2COc3ccc(cc3)C(=O)N(C)[C@H](C(=O)NCc3ccc4ccccc4c3)CCC(=O)N(C)CC(=O)N2C1 [Ex. 262]
21 min

---

test: Metabolic stability assay, CD-1 mouse microsomes; assay type: in vitro ADME; details: both, CD-1, mouse, microsomes, 1 h, 10 µM
METRIC_NAME: Metabolic Stability 60 min mouse [% remain.] (% remain.)
Numbers only, in % remain..

# count of solved cases: 8
COMPOUND_SMILES	RESULT
CCCCC(=O)N[C@H]1C[C@H]2COc3cccc(c3)C(=O)N(C)CC[C@H](N)C(=O)N2C1	65
CN(C)CCNC(=O)[C@@H]1CCC(=O)N(C)CC(=O)N2C[C@@H](NCCc3cccc4ccccc34)C[C@H]2COc2ccc(F)cc2C(=O)N1C	100
CN1CCC[C@H](NCC(C)(C)C)C(=O)N2C[C@@H](Oc3ccccc3)C[C@H]2COc2cccc(c2)C1=O	4
CN(C)CC(=O)N[C@H]1C[C@H]2COc3ccc(F)cc3C(=O)N(C)[C@H](C(=O)NCCc3c[nH]c4ccccc34)CCC(=O)N(C)CC(=O)N2C1	79
CCN(CC)[C@H]1C[C@H]2COc3ccc(F)cc3C(=O)N(C)[C@H](C(=O)N3CCCC3)CCC(=O)N(C)CC(=O)N2C1	98
CN1CC(=O)N2C[C@H](NC(=O)CCC(=O)O)C[C@H]2COc2ccc(cc2)C(=O)N(C)[C@H](C(=O)NCc2ccncc2)CCC1=O	100
CN1CC(=O)N2C[C@@H](N)C[C@H]2COc2ccc(F)cc2C(=O)N(C)[C@@H](C(=O)NCc2ccc3ccccc3c2)CCC1=O	95
CCN(CC)[C@@H]1C[C@H]2COc3ccc(cc3)C(=O)N(C)[C@H](C(=O)NCc3ccc4ccccc4c3)CCC(=O)N(C)CC(=O)N2C1	4

Please go through the list and note Metabolic Stability 60 min mouse [% remain.] for each molecule.
1. CN1CC(=O)N2C[C@@H](NC(=O)OC(C)(C)C)C[C@H]2COc2ccc(F)cc2C(=O)N(C)[C@H](C(=O)NCCc2c[nH]c3ccccc23)CCC1=O
2. CN1CC(=O)N2C[C@H](NC(=O)CN3CCCC3)C[C@H]2COc2ccc(cc2)C(=O)N(C)[C@H](C(=O)NCc2ccncc2)CCC1=O

1: 55; 2: 98

What value of measured Metabolic Stability 60 min mouse [% remain.] is listed for CC(=O)N[C@H]1C[C@H]2COc3ccc(F)cc3C(=O)N(C)[C@H](C(=O)NCCc3c[nH]c4ccccc34)CCC(=O)N(C)CC(=O)N2C1 ?
80

---

Give Metabolic Stability T½ [min] hum for every item shown.
Assay: Metabolic stability assay, human microsomes
Format: in vitro ADME
Conditions: human, microsomes
Description: 4. Plasma and Metabolic Stability Assays […] Microsomes from a human 50 donor mixed gender pool and 1:1 mixtures of microsomes from CD-1 mouse single-gender pools are purchased from Celsis (Belgium). […] After acetonitrile precipitation (2 volumes) and HPLC/MS/MS analysis metabolic turnover is expressed in % of the initial 0 minutes value and half life T½ (min) is calculated. […]

Parameter requested: Metabolic Stability T½ [min] hum. Apply to each item below.
1. CN1CC(=O)N2C[C@@H](NC(=O)CCC(=O)O)C[C@H]2COc2ccc(F)cc2C(=O)N(C)[C@@H](C(=O)NCc2ccc3ccccc3c2)CCC1=O [Ex. 95]
2. CC(=O)N[C@H]1C[C@H]2COc3ccc(F)cc3C(=O)N(C)[C@H](C(=O)N3CCCC3)CCC(=O)N(C)CC(=O)N2C1 [Ex. 37]
3. CN1CCC[C@H](N)C(=O)N2C[C@@H](OCc3ccc(-c4ccccc4)cc3)C[C@H]2COc2cccc(c2)C1=O [Ex. 570]
4. CCCCC(=O)N[C@H]1C[C@H]2COc3cccc(c3)C(=O)N(C)CC[C@H](NC(=O)CCc3ccncc3)C(=O)N2C1 [Ex. 170]

1. > 60 min
2. > 60 min
3. 13 min
4. > 60 min
